# METHOD DESCRIPTION: clinical
# STUDY CONDITIONS: human, in vivo, 5-FU Day 2 Mean T1/2, capecitabine daily dose 75 (with Eniluracil)
ASSAY ENDPOINT: half-life (h)
Write the number in h without appending the unit.

Task: What value of half-life has been recorded for this entry: `O=c1[nH]cc(F)c(=O)[nH]1`
Output: 3.6

---

# METHOD DESCRIPTION: clinical
# STUDY CONDITIONS: human, in vivo, 5-FU Day 2 Mean T1/2, capecitabine daily dose 450 (with Eniluracil)
ASSAY ENDPOINT: half-life (h)
Write the number in h without appending the unit.

Task: What value of half-life has been recorded for this entry: `O=c1[nH]cc(F)c(=O)[nH]1`
Output: 5.71
